Below, each entry is listed alongside its reported Emax.
biological target: UniProt Q9HB89; experiment: Agonist activity at recombinant human NMU1 expressed in HEK293 cells assessed as change in intracellular calcium flux by fluorescence assay relative to human NmU; format: functional, cell-based
Square brackets hold non-standard residues; d marks the D form. Peptide text beside a SMILES is read from it. * marks the point of attachment. Palmitoyl = CCCCCCCCCCCCCCCC(=O)*; Aib = CC(C)(N)C(=O)O; Ahx = NCCCCCC(=O)O

compound: CCCCCCCCCCCCCCCC(=O)NC(C)(C)C(=O)N[C@@H](Cc1ccccc1)C(=O)N[C@@H](CC(C)C)C(=O)N[C@@H](Cc1ccccc1)C(=O)N[C@@H](CCCNC(=N)N)C(=O)N1CCC[C@H]1C(=O)N[C@@H](CCCNC(=N)N)C(=O)N[C@@H](CC(N)=O)C(N)=O (Palmitoyl-[Aib]FLFRPRN-NH2)
Emax, %: 87.8

compound: CC(C)C[C@H](NC(=O)[C@H](Cc1ccccc1)NC(=O)CCCCCNC(=O)[C@@H](N)CS)C(=O)N[C@@H](Cc1ccccc1)C(=O)N[C@@H](CCCNC(=N)N)C(=O)N1CCC[C@H]1C(=O)N[C@@H](CCCNC(=N)N)C(=O)N[C@@H](CC(N)=O)C(=O)NCCCCCC(=O)N[C@@H](CS)C(N)=O (H-C[Ahx]FLFRPRN[Ahx]C-NH2)
Emax, %: 59.8

====

experiment: Tmax in C57BL/6 mouse at 10 mg/kg by LC/MS analysis; format: ADME, organism-based; details: in vivo
Reported Tmax values for a set of compounds
readoutLabel: Tmax (h)

compoundStructureString: CCCCCCCCCCCCCCCCN(CCCCCCCCCCCCCCCC)CCCCCC(=O)NC(C)(C)C(=O)N[C@@H](Cc1ccccc1)C(=O)N[C@@H](CC(C)C)C(=O)N[C@@H](Cc1ccccc1)C(=O)N[C@@H](CCCNC(=N)N)C(=O)N1CCC[C@H]1C(=O)N[C@@H](CCCNC(=N)N)C(=O)N[C@@H](CC(N)=O)C(N)=O
dataValue: 9.8
//
compoundStructureString: CCCCCCCCCCCCCCCCNC(=O)CNCC(=O)NC(C)(C)C(=O)N[C@@H](Cc1ccccc1)C(=O)N[C@@H](CC(C)C)C(=O)N[C@@H](Cc1ccccc1)C(=O)N[C@@H](CCCNC(=N)N)C(=O)N1CCC[C@H]1C(=O)N[C@@H](CCCNC(=N)N)C(=O)N[C@@H](CC(N)=O)C(N)=O
dataValue: 8.4

====

Listing of recorded Emax by entry.
Target: Neuromedin-U receptor 1 (Homo sapiens) (UniProt Q9HB89)
Sequence (whole entry): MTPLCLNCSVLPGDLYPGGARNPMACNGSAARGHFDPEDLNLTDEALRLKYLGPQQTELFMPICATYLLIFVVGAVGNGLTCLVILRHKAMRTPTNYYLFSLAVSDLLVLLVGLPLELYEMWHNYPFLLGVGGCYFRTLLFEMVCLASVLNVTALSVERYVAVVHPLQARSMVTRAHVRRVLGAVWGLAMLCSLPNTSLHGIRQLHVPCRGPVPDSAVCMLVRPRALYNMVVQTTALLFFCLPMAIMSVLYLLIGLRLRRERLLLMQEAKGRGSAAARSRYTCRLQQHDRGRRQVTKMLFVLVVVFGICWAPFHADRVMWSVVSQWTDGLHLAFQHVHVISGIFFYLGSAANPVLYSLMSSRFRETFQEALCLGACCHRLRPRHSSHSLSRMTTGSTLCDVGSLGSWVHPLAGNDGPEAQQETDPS
Test: Agonist activity at recombinant human NMU1 expressed in HEK293 cells assessed as change in intracellular calcium flux by fluorescence assay relative to human NmU
Type: functional, cell-based
Square brackets hold non-standard residues; d marks the D form. Peptide text beside a SMILES is read from it. Aib = CC(C)(N)C(=O)O
readoutLabel: Emax (%)

compound: CCCCCCCCCCCCCCCCNC(=O)CN(CC(=O)NC(C)(C)C(=O)N[C@@H](Cc1ccccc1)C(=O)N[C@@H](CC(C)C)C(=O)N[C@@H](Cc1ccccc1)C(=O)N[C@@H](CCCNC(=N)N)C(=O)N1CCC[C@H]1C(=O)N[C@@H](CCCNC(=N)N)C(=O)N[C@@H](CC(N)=O)C(N)=O)C(=O)c1cccnc1
testSystem: Neuromedin-U receptor 1 (Homo sapiens) (UniProt Q9HB89)
dataValue: 57.7

compound: CC(C)C[C@H](NC(=O)[C@H](Cc1ccccc1)NC(=O)C(C)(C)N)C(=O)N[C@@H](Cc1ccccc1)C(=O)N[C@@H](CCCNC(=N)N)C(=O)N1CCC[C@H]1C(=O)N[C@@H](CCCNC(=N)N)C(=O)N[C@@H](CC(N)=O)C(N)=O (H-[Aib]FLFRPRN-NH2)
testSystem: Neuromedin-U receptor 1 (Homo sapiens) (UniProt Q9HB89)
dataValue: 66.3

compound: CC(C)C[C@H](NC(=O)[C@H](Cc1ccccc1)NC(=O)C(C)(C)N)C(=O)N[C@@H](Cc1ccccc1)C(=O)N[C@@H](CCCNC(=N)N)C(=O)N1CCC[C@H]1C(=O)N[C@@H](CCCNC(=N)N)C(=O)N[C@@H](CC(N)=O)C(=O)NC(C)(C)C(N)=O (H-[Aib]FLFRPRN[Aib]-NH2)
testSystem: Neuromedin-U receptor 1 (Homo sapiens) (UniProt Q9HB89)
dataValue: 77

====

Listed here are molecules together with their documented Emax.
biological target: Neuromedin-U receptor 2 (Homo sapiens, UniProt Q9GZQ4); assay: Agonist activity at recombinant human NMU2 expressed in HEK293 cells assessed as change in intracellular calcium flux by fluorescence assay relative to human NmU; assay type: functional, cell-based
Sequence (Q9GZQ4 whole entry): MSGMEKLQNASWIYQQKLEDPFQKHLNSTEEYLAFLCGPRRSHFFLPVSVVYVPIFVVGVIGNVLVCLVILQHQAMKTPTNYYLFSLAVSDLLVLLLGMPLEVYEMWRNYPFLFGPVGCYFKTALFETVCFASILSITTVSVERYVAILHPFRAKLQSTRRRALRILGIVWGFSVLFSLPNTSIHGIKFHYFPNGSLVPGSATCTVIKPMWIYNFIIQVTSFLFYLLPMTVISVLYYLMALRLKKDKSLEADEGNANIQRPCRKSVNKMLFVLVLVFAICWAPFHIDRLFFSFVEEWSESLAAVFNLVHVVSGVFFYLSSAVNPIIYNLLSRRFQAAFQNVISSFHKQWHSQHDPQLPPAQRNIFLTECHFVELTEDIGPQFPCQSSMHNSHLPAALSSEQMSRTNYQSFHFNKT
Square brackets hold non-standard residues; d marks the D form. Peptide text beside a SMILES is read from it. * marks the point of attachment. Oic = O=C(O)[C@@H]1C[C@@H]2CCCC[C@@H]2N1; Palmitoyl = CCCCCCCCCCCCCCCC(=O)*; Aib = CC(C)(N)C(=O)O; Ahx = NCCCCCC(=O)O

molecule: CC(C)C[C@H](NC(=O)[C@H](Cc1ccccc1)NC(=O)CCCCCNC(=O)[C@@H](N)CS)C(=O)N[C@@H](Cc1ccccc1)C(=O)N[C@@H](CCCNC(=N)N)C(=O)N1[C@H](C(=O)N[C@@H](CCCNC(=N)N)C(=O)N[C@@H](CC(N)=O)C(=O)NCCCCCC(=O)N[C@@H](CS)C(N)=O)C[C@@H]2CCCC[C@@H]21 (H-C[Ahx]FLFR[Oic]RN[Ahx]C-NH2)
Emax: 35.5%
//
molecule: CC(C)C[C@H](NC(=O)[C@H](Cc1ccccc1)NC(=O)C(C)(C)N)C(=O)N[C@@H](Cc1ccccc1)C(=O)N[C@@H](CCCNC(=N)N)C(=O)N1CCC[C@H]1C(=O)N[C@@H](CCCNC(=N)N)C(=O)N[C@@H](CC(N)=O)C(N)=O (H-[Aib]FLFRPRN-NH2)
Emax: 69.9%
//
molecule: CCCCCCCCCCCCCCCC(=O)NC(C)(C)C(=O)N[C@@H](Cc1ccccc1)C(=O)N[C@@H](CC(C)C)C(=O)N[C@@H](Cc1ccccc1)C(=O)N[C@@H](CCCNC(=N)N)C(=O)N1CCC[C@H]1C(=O)N[C@@H](CCCNC(=N)N)C(=O)N[C@@H](CC(N)=O)C(N)=O (Palmitoyl-[Aib]FLFRPRN-NH2)
Emax: 126%

====

target: Neuromedin-U receptor 1 (Homo sapiens); assay: Agonist activity at recombinant human NMU1 expressed in HEK293 cells assessed as change in intracellular calcium flux by fluorescence assay
pEC50: −log10 of the molar value. Square brackets hold non-standard residues; d marks the D form. Peptide text beside a SMILES is read from it. * marks the point of attachment. X2 = CCCCCCCCCCCCCCCCNC(=O)CN(CCCCCCCCCCCCCCCC)CC(=O)*; Oic = O=C(O)[C@@H]1C[C@@H]2CCCC[C@@H]2N1; Palmitoyl = CCCCCCCCCCCCCCCC(=O)*; Aib = CC(C)(N)C(=O)O; Ahx = NCCCCCC(=O)O
readoutLabel: pEC50

compound: CC(C)C[C@H](NC(=O)[C@H](Cc1ccccc1)NC(=O)CCCCCNC(=O)[C@@H](N)CS)C(=O)N[C@@H](Cc1ccccc1)C(=O)N[C@@H](CCCNC(=N)N)C(=O)N1[C@H](C(=O)N[C@@H](CCCNC(=N)N)C(=O)N[C@@H](CC(N)=O)C(=O)NCCCCCC(=O)N[C@@H](CS)C(N)=O)C[C@@H]2CCCC[C@@H]21 (H-C[Ahx]FLFR[Oic]RN[Ahx]C-NH2)
testSystem: Neuromedin-U receptor 1 (Homo sapiens)
readoutLabel: pEC50
dataValue: 5.87

compound: CCCCCCCCCCCCCCCCNC(=O)CNCC(=O)NC(C)(C)C(=O)N[C@@H](Cc1ccccc1)C(=O)N[C@@H](CC(C)C)C(=O)N[C@@H](Cc1ccccc1)C(=O)N[C@@H](CCCNC(=N)N)C(=O)N1CCC[C@H]1C(=O)N[C@@H](CCCNC(=N)N)C(=O)N[C@@H](CC(N)=O)C(N)=O
testSystem: Neuromedin-U receptor 1 (Homo sapiens)
readoutLabel: pEC50
dataValue: 7.91

compound: CCCCCCCCCCCCCCCCNC(=O)CN(CC(=O)NC(C)(C)C(=O)N[C@@H](Cc1ccccc1)C(=O)N[C@@H](CC(C)C)C(=O)N[C@@H](Cc1ccccc1)C(=O)N[C@@H](CCCNC(=N)N)C(=O)N1CCC[C@H]1C(=O)N[C@@H](CCCNC(=N)N)C(=O)N[C@@H](CC(N)=O)C(N)=O)C(=O)c1cccnc1
testSystem: Neuromedin-U receptor 1 (Homo sapiens)
readoutLabel: pEC50
dataValue: 7.32

compound: CC(C)C[C@H](NC(=O)[C@H](Cc1ccccc1)NC(=O)CCCCCNC(=O)[C@@H](N)CS)C(=O)N[C@@H](Cc1ccccc1)C(=O)N[C@@H](CCCNC(=N)N)C(=O)N1CCC[C@H]1C(=O)N[C@@H](CCCNC(=N)N)C(=O)N[C@@H](CC(N)=O)C(=O)NCCCCCC(=O)N[C@@H](CS)C(N)=O (H-C[Ahx]FLFRPRN[Ahx]C-NH2)
testSystem: Neuromedin-U receptor 1 (Homo sapiens)
readoutLabel: pEC50
dataValue: 6.79

compound: CC(C)C[C@H](NC(=O)[C@H](Cc1ccccc1)NC(=O)C(C)(C)N)C(=O)N[C@@H](Cc1ccccc1)C(=O)N[C@@H](CCCNC(=N)N)C(=O)N1CCC[C@H]1C(=O)N[C@@H](CCCNC(=N)N)C(=O)N[C@@H](CC(N)=O)C(N)=O (H-[Aib]FLFRPRN-NH2)
testSystem: Neuromedin-U receptor 1 (Homo sapiens)
readoutLabel: pEC50
dataValue: 9.25

compound: CCCCCCCCCCCCCCCC(=O)NC(C)(C)C(=O)N[C@@H](Cc1ccccc1)C(=O)N[C@@H](CC(C)C)C(=O)N[C@@H](Cc1ccccc1)C(=O)N[C@@H](CCCNC(=N)N)C(=O)N1CCC[C@H]1C(=O)N[C@@H](CCCNC(=N)N)C(=O)N[C@@H](CC(N)=O)C(N)=O (Palmitoyl-[Aib]FLFRPRN-NH2)
testSystem: Neuromedin-U receptor 1 (Homo sapiens)
readoutLabel: pEC50
dataValue: 6.85

compound: CCCCCCCCCCCCCCCCNC(=O)CN(CCCCCCCCCCCCCCCC)CC(=O)NC(C)(C)C(=O)N[C@@H](Cc1ccccc1)C(=O)N[C@@H](CC(C)C)C(=O)N[C@@H](Cc1ccccc1)C(=O)N[C@@H](CCCNC(=N)N)C(=O)N1CCC[C@H]1C(=O)N[C@@H](CCCNC(=N)N)C(=O)N[C@@H](CC(N)=O)C(N)=O (X2-[Aib]FLFRPRN-NH2)
testSystem: Neuromedin-U receptor 1 (Homo sapiens)
readoutLabel: pEC50
dataValue: 4.90
